Experiment: Specific activity of purified CHI, absorbance decrease at 384 nm, eriodictyol chalcone; also: unit not given here
Format: biochemical
Settings: purified CHI in 50 mM PBS, 100 μM substrate, 25° C.
measured.parameter: Specific activity, Eriodictyol chalcone

molecule	reported.measurement
CHI4: Chalcone isomerase from Acetoanaerobium noterae, access no. WP_079589066.1 (protein, listed as Acetoanaerobium noterae) ADFEFNPMRSLIYVDVVKEDYRHMLKHWLYRHHIPDSISQFGPYVTKYAFYPALPTPPEGDRFGTIRMQLTEHYWTVNPFTSNFKNKAFTEFFPIDILKWQGNIPDDSKVAALEGEEVVKLEGDDARASGGDNGCPPFIFAFVPICWEEDFKGSQRTVEDGPNYRWQFVMKYPEGVTMKEGDKWFYEEMIPKFKDMPDVLRILSSKIIQQVNGCPYHRVVEMWFNCPSAWYRSAVEKAKEIKKPSWAKYDVFPYLKPKFEIASLFLTDIAESDNYSQYRGYITMR	34.4
